- Experimental System: S100B (Homo sapiens, UniProt P04271)
- Construct: made in house; host or cells: Escherichia coli BL21(DE3)
- Sequence (P04271 1-92): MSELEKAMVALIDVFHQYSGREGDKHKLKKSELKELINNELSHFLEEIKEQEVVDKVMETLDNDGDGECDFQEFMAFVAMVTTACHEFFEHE
- Protocol Details: Pull-down assay with immobilized protein and LSM libraries
- Type: binding
- Run Parameters: H14 library; 1:1 binding assumed; read-out: Surface mapping KD (apparent)
Recorded Metric: Kd (µM)
Give your result in µM as a bare value.

Lookup: Kd / S100B (Homo sapiens, UniProt P04271) / "NC(=O)CC[C@@H](CC(=O)N[C@H]1CCCC[C@@H]1C(=O)N[C@H]1CCCC[C@@H]1C(=O)N[C@H](CC(=O)N[C@H]1CCCC[C@@H]1C(N)=O)Cc1ccc(O)cc1)NC(=O)[C@H]1CCCC[C@@H]1N" 166

Lookup: Kd / S100B (Homo sapiens, UniProt P04271) / "CC[C@H](C)[C@@H](CC(=O)N[C@H]1CCCC[C@@H]1C(=O)N[C@H]1CCCC[C@@H]1C(=O)N[C@@H](CCCNC(=N)N)CC(=O)N[C@H]1CCCC[C@@H]1C(N)=O)NC(=O)[C@H]1CCCC[C@@H]1N" 37

Lookup: Kd / S100B (Homo sapiens, UniProt P04271) / "NC(=O)[C@H]1CCCC[C@@H]1NC(=O)C[C@H](Cc1c[nH]c2ccccc12)NC(=O)[C@H]1CCCC[C@@H]1NC(=O)[C@H]1CCCC[C@@H]1NC(=O)C[C@H](Cc1c[nH]c2ccccc12)NC(=O)[C@H]1CCCC[C@@H]1N" 19

Lookup: Kd / S100B (Homo sapiens, UniProt P04271) / "N=C(N)NCCC[C@@H](CC(=O)N[C@H]1CCCC[C@@H]1C(N)=O)NC(=O)[C@H]1CCCC[C@@H]1NC(=O)[C@H]1CCCC[C@@H]1NC(=O)C[C@H](CC(=O)O)NC(=O)[C@H]1CCCC[C@@H]1N" 193

====

- Experimental System: RecQ-WH (Escherichia coli)
- Construct: coding for residues 408– 523 of E. coli RecQ; made in house; host or cells: E. coli BL21(DE3)
- Sequence (P15043 408-523): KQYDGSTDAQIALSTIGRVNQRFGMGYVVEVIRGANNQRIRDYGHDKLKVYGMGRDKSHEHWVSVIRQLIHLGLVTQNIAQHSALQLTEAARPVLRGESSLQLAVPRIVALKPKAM
- Protocol Details: Pull-down assay with immobilized protein and LSM libraries
- Parameters: species or system E. coli
- Run Parameters: H14 library; 1:1 binding assumed; read-out: Surface mapping KD (apparent)
Recorded Metric: Kd (µM)
Give your result in µM as a bare value.

Lookup: Kd / RecQ-WH (Escherichia coli) / N=C(N)NCCC[C@@H](CC(=O)N[C@H]1CCCC[C@@H]1C(N)=O)NC(=O)[C@H]1CCCC[C@@H]1NC(=O)[C@H]1CCCC[C@@H]1NC(=O)C[C@H](Cc1ccc(O)cc1)NC(=O)[C@H]1CCCC[C@@H]1N [H14 YR] 421

Lookup: Kd / RecQ-WH (Escherichia coli) / NC(=O)[C@H]1CCCC[C@@H]1NC(=O)C[C@H](CCC(=O)O)NC(=O)[C@H]1CCCC[C@@H]1NC(=O)[C@H]1CCCC[C@@H]1NC(=O)C[C@H](Cc1ccccc1)NC(=O)[C@H]1CCCC[C@@H]1N [H14 FE] 328

Lookup: Kd / RecQ-WH (Escherichia coli) / CC(C)C[C@@H](CC(=O)N[C@H]1CCCC[C@@H]1C(N)=O)NC(=O)[C@H]1CCCC[C@@H]1NC(=O)[C@H]1CCCC[C@@H]1NC(=O)C[C@H](Cc1ccccc1)NC(=O)[C@H]1CCCC[C@@H]1N [H14 FL] 79

Lookup: Kd / RecQ-WH (Escherichia coli) / CSCC[C@@H](CC(=O)N[C@H]1CCCC[C@@H]1C(=O)N[C@H]1CCCC[C@@H]1C(=O)N[C@H](CC(=O)N[C@H]1CCCC[C@@H]1C(N)=O)Cc1ccc(O)cc1)NC(=O)[C@H]1CCCC[C@@H]1N [H14 MY] 263

Lookup: Kd / RecQ-WH (Escherichia coli) / NC(=O)CC[C@@H](CC(=O)N[C@H]1CCCC[C@@H]1C(N)=O)NC(=O)[C@H]1CCCC[C@@H]1NC(=O)[C@H]1CCCC[C@@H]1NC(=O)C[C@H](Cc1c[nH]c2ccccc12)NC(=O)[C@H]1CCCC[C@@H]1N [H14 WQ] 473

Lookup: Kd / RecQ-WH (Escherichia coli) / NC(=O)[C@H]1CCCC[C@@H]1NC(=O)C[C@H](Cc1ccccc1)NC(=O)[C@H]1CCCC[C@@H]1NC(=O)[C@H]1CCCC[C@@H]1NC(=O)C[C@H](CO)NC(=O)[C@H]1CCCC[C@@H]1N [H14 SF] 182

Lookup: Kd / RecQ-WH (Escherichia coli) / CC[C@H](C)[C@@H](CC(=O)N[C@H]1CCCC[C@@H]1C(=O)N[C@H]1CCCC[C@@H]1C(=O)N[C@H](CC(=O)N[C@H]1CCCC[C@@H]1C(N)=O)Cc1ccccc1)NC(=O)[C@H]1CCCC[C@@H]1N [H14 IF] 186

Lookup: Kd / RecQ-WH (Escherichia coli) / CSCC[C@@H](CC(=O)N[C@H]1CCCC[C@@H]1C(N)=O)NC(=O)[C@H]1CCCC[C@@H]1NC(=O)[C@H]1CCCC[C@@H]1NC(=O)C[C@H](Cc1ccccc1)NC(=O)[C@H]1CCCC[C@@H]1N [H14 FM] 225

Lookup: Kd / RecQ-WH (Escherichia coli) / NC(=O)[C@H]1CCCC[C@@H]1NC(=O)C[C@H](Cc1ccc(O)cc1)NC(=O)[C@H]1CCCC[C@@H]1NC(=O)[C@H]1CCCC[C@@H]1NC(=O)C[C@H](Cc1ccccc1)NC(=O)[C@H]1CCCC[C@@H]1N [H14 FY] 92

====

- Experimental System: CaM (Bos taurus, UniProt P62157)
- Construct: made in house; host or cells: E. coli BL21 (DE3)
- Protocol Details: Competition pull-down with native ligand TRPV1-Ct15
- Type: binding, bovine
- Run Parameters: H14 library; competitor peptide 200 µM; read-out: Surface mapping KD (apparent), competition
Recorded Metric: pKd
# pKd: negative log10 of molar concentration; output just the value

Could you tell me which pKd is on file for NC(=O)C[C@@H](CC(=O)N[C@H]1CCCC[C@@H]1C(=O)N[C@H]1CCCC[C@@H]1C(=O)N[C@@H](CCC(=O)O)CC(=O)N[C@H]1CCCC[C@@H]1C(N)=O)NC(=O)[C@H]1CCCC[C@@H]1N [H14 NE] ? 3.38

Could you tell me which pKd is on file for N=C(N)NCCC[C@@H](CC(=O)N[C@H]1CCCC[C@@H]1C(N)=O)NC(=O)[C@H]1CCCC[C@@H]1NC(=O)[C@H]1CCCC[C@@H]1NC(=O)C[C@H](CCCNC(=N)N)NC(=O)[C@H]1CCCC[C@@H]1N [H14 RR] ? 3.99

Could you tell me which pKd is on file for CSCC[C@@H](CC(=O)N[C@H]1CCCC[C@@H]1C(=O)N[C@H]1CCCC[C@@H]1C(=O)N[C@H](CC(=O)N[C@H]1CCCC[C@@H]1C(N)=O)CC(C)C)NC(=O)[C@H]1CCCC[C@@H]1N [H14 ML] ? 3.36

Could you tell me which pKd is on file for NC(=O)C[C@@H](CC(=O)N[C@H]1CCCC[C@@H]1C(N)=O)NC(=O)[C@H]1CCCC[C@@H]1NC(=O)[C@H]1CCCC[C@@H]1NC(=O)C[C@H](CO)NC(=O)[C@H]1CCCC[C@@H]1N [H14 SN] ? 3.55

Could you tell me which pKd is on file for CSCC[C@@H](CC(=O)N[C@H]1CCCC[C@@H]1C(N)=O)NC(=O)[C@H]1CCCC[C@@H]1NC(=O)[C@H]1CCCC[C@@H]1NC(=O)C[C@H](Cc1ccccc1)NC(=O)[C@H]1CCCC[C@@H]1N [H14 FM] ? 3.96

Could you tell me which pKd is on file for NC(=O)C[C@@H](CC(=O)N[C@H]1CCCC[C@@H]1C(=O)N[C@H]1CCCC[C@@H]1C(=O)N[C@@H](CC(=O)O)CC(=O)N[C@H]1CCCC[C@@H]1C(N)=O)NC(=O)[C@H]1CCCC[C@@H]1N [H14 ND] ? 3.33

Could you tell me which pKd is on file for NC(=O)CC[C@@H](CC(=O)N[C@H]1CCCC[C@@H]1C(N)=O)NC(=O)[C@H]1CCCC[C@@H]1NC(=O)[C@H]1CCCC[C@@H]1NC(=O)C[C@H](CCC(N)=O)NC(=O)[C@H]1CCCC[C@@H]1N [H14 QQ] ? 3.53

Could you tell me which pKd is on file for NC(=O)[C@H]1CCCC[C@@H]1NC(=O)C[C@H](Cc1c[nH]c2ccccc12)NC(=O)[C@H]1CCCC[C@@H]1NC(=O)[C@H]1CCCC[C@@H]1NC(=O)C[C@H](CC(=O)O)NC(=O)[C@H]1CCCC[C@@H]1N [H14 DW] ? 3.36

Could you tell me which pKd is on file for CC(C)[C@@H](CC(=O)N[C@H]1CCCC[C@@H]1C(N)=O)NC(=O)[C@H]1CCCC[C@@H]1NC(=O)[C@H]1CCCC[C@@H]1NC(=O)C[C@H](CC(N)=O)NC(=O)[C@H]1CCCC[C@@H]1N [H14 NV] ? 3.58
